Listed here: compounds with reported Ki for Carbonic anhydrase 2 (Homo sapiens).
endpoint.name: Ki (nM)

{"test.smiles": "NS(=O)(=O)c1ccc(CCNC(=S)Nc2ccccc2)cc1", "endpoint.name": "Ki", "recorded.result": 53}
{"test.smiles": "NS(=O)(=O)c1ccc(CCNC(=S)Nc2ccc(S(N)(=O)=O)cc2)cc1", "endpoint.name": "Ki", "recorded.result": 4}

---

Listed here: molecules with reported Ki for Carbonic anhydrase 9 (Homo sapiens, UniProt Q16790).
endpoint.name: Ki (µM)

{"test.smiles": "NS(=O)(=O)c1cccc(NC(=O)Nc2ccccc2)c1", "tested.target": "Carbonic anhydrase 9 (Homo sapiens, UniProt Q16790)", "endpoint.name": "Ki", "u": "µM", "recorded.result": 0.014}
{"test.smiles": "CC(C)(C)C(=O)Nc1ccc(S(N)(=O)=O)cc1", "tested.target": "Carbonic anhydrase 9 (Homo sapiens, UniProt Q16790)", "endpoint.name": "Ki", "u": "µM", "recorded.result": 0.136}
{"test.smiles": "NS(=O)(=O)c1ccc(CCNC(=S)Nc2ccccc2)cc1", "tested.target": "Carbonic anhydrase 9 (Homo sapiens, UniProt Q16790)", "endpoint.name": "Ki", "u": "µM", "recorded.result": 0.021}

---

molecular target: Carbonic anhydrase 12 (Homo sapiens, UniProt O43570)
Sequence (O43570 whole entry): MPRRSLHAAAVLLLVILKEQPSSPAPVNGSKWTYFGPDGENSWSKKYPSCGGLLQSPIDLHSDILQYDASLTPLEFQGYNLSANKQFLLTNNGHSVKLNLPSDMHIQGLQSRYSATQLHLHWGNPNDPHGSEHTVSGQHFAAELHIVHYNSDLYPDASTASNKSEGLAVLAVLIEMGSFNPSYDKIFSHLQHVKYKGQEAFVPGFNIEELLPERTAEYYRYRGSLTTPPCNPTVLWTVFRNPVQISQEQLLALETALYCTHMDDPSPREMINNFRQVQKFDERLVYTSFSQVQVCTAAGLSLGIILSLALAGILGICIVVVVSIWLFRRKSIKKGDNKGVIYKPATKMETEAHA
pKi: −log10 of the molar value.
endpoint.name: pKi

{"test.smiles": "NS(=O)(=O)c1ccc(CCNC(=S)Nc2ccccc2)cc1", "recorded.result": 7.62}
{"test.smiles": "NS(=O)(=O)c1ccc(CCNC(=S)Nc2ccc(S(N)(=O)=O)cc2)cc1", "recorded.result": 7.10}
{"test.smiles": "CC(=O)Nc1ccc(S(N)(=O)=O)cc1", "recorded.result": 7.31}

Where do these numbers come from? They come from ChEMBL document CHEMBL1143479.
